system: Citrated human and rat plasma; assay: Prothrombin time (PT), method using coagulometer; type: biochemical; conditions: concentration required to double the plasma clotting times, plasma species not given
measurement_label: 2xPT (uM) Coagulometer (µM)
Report the figure in µM without appending any unit label.

CCC1=NN(c2ccc(N3C[C@H](CNC(=O)c4ccc(Cl)s4)OC3=O)cc2)CCN1	0.40

Check Citrated human and rat plasma data and give 2xPT (uM) Coagulometer for CCN1OCCN=C1c1ccc(N2C[C@H](CNC(=O)c3ccc(Cl)s3)OC2=O)cc1 .
0.16

# assay system Citrated human and rat plasma: give 2xPT (uM) Coagulometer of CN1CCON=C1c1ccc(N2C[C@H](CNC(=O)c3ccc(Cl)s3)OC2=O)cc1
0.69

With Citrated human and rat plasma as the test system, provide measured 2xPT (uM) Coagulometer for this compound: CN1C=NN(c2ccc(N3C[C@H](CNC(=O)c4ccc(Cl)s4)OC3=O)cc2)CC1
4.26

Report value: 2xPT (uM) Coagulometer, system: Citrated human and rat plasma, compound: CC1=NN(c2ccc(N3C[C@H](CNC(=O)c4ccc(Cl)s4)OC3=O)cc2)CCN1
0.31

Please report the measured 2xPT (uM) Coagulometer for O=CN1CCN(c2ccc(N3C[C@H](CNC(=O)c4ccc(Cl)s4)OC3=O)cc2)C=N1 tested on Citrated human and rat plasma.
9.38

Fetch value of 2xPT (uM) Coagulometer on Citrated human and rat plasma for CN1C=NCCN1c1ccc(N2C[C@H](CNC(=O)c3ccc(Cl)s3)OC2=O)cc1 .
0.50

Write down measured 2xPT (uM) Coagulometer (Citrated human and rat plasma) for this compound. O=C(NC[C@H]1CN(c2ccc(C3=NCCN4C(=O)CCN34)cc2)C(=O)O1)c1ccc(Cl)s1
1.00

Give 2xPT (uM) Coagulometer for this entry on Citrated human and rat plasma: CC1=NOCCN1c1ccc(N2C[C@H](CNC(=O)c3ccc(Cl)s3)OC2=O)cc1
3.51

* * *

Each entry below carries its recorded Inhibition of thrombus formation (%).
Tested on: thrombus formation in rat AV-shunt
Assay: Antithrombotic effect in arteriovenous shunt (AV-shunt) model in rats
Type: in vivo
Settings: oral 60 min before shunt, values without asterisk (urethane anesthetic), dose not given
Procedure: Antithrombotic effect of the oxazolidinone derivatives with cyclic amidoxime or cyclic amidrazone group represented by formula I of the present invention was evaluated using arteriovenous (AV) shunt in rats. Fasted, male Sprague-Dawley rats, weighed 200-240 g and aged approximately 7 weeks, were anesthetized by intraperitoneal injection of urethane (1.25 g/kg) or chloral hydrate. […] ED50 values were calculated by linear regression analysis using Excel 2003 (Microsoft®.
Please append the unit to your numeric answer.

O=C(NC[C@H]1CN(c2ccc(N3CCNC=N3)cc2)C(=O)O1)c1ccc(Cl)s1	78%
O=C(NC[C@H]1CN(c2ccc(C3=NOCCN3)cc2)C(=O)O1)c1ccc(Cl)s1	45%
CCN1CCON=C1c1ccc(N2C[C@H](CNC(=O)c3ccc(Cl)s3)OC2=O)cc1	61%
CCN1OCCN=C1c1ccc(N2C[C@H](CNC(=O)c3ccc(Cl)s3)OC2=O)cc1	80%
O=C(NC[C@H]1CN(c2ccc(C3=NOCCN3C3CC3)cc2)C(=O)O1)c1ccc(Cl)s1	24%

Return Inhibition of thrombus formation (%) for the following molecule: CN1OCCN=C1c1ccc(N2C[C@H](CNC(=O)c3ccc(Cl)s3)OC2=O)cc1
21%

Quote Inhibition of thrombus formation (%) reported for O=C(NC[C@H]1CN(c2ccc(N3C=NOCC3)cc2)C(=O)O1)c1ccc(Cl)s1 please.
29%

Assign Inhibition of thrombus formation (%) to the following record: CN1CCON=C1c1ccc(N2C[C@H](CNC(=O)c3ccc(Cl)s3)OC2=O)cc1
65%

* * *

target: human FXa (Homo sapiens); construct: purchased Enzyme Research Laboratories; test: Inhibitory activity against purified human FXa, chromogenic substrate S-2765; assay type: biochemical; details: purified human FXa 2.6 nM, S-2765 300 uM, pH 7.8, 37° C.; Cheng-Prusoff, Km 125 μM; read-out: Ki (nM), inhibition constant against human FXa
Sequence (P00742 235-488 limits assumed): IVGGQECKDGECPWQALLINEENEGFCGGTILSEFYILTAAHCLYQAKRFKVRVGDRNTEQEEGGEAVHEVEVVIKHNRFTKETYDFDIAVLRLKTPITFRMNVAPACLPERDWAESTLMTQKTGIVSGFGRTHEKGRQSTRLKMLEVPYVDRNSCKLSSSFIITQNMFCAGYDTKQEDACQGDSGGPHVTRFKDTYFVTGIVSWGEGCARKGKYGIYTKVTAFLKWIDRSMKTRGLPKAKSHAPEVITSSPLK
Sequence (P00742 41-179 partner limits assumed): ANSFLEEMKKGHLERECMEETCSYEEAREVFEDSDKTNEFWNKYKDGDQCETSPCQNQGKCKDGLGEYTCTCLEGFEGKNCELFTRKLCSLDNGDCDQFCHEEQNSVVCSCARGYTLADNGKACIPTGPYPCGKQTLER
Reported Ki values for the following compounds.
Entry format: amount then unit.

CC1=NOCCN1c1ccc(N2C[C@H](CNC(=O)c3ccc(Cl)s3)OC2=O)cc1	23.2 nM
CC1=NN(c2ccc(N3C[C@H](CNC(=O)c4ccc(Cl)s4)OC3=O)cc2)CCN1	2.07 nM
CN1OCCN=C1c1ccc(N2C[C@H](CNC(=O)c3ccc(Cl)s3)OC2=O)cc1	10 nM

GET Ki where system = human FXa (Homo sapiens) and item = CC1=NN(C)CCN1c1ccc(N2C[C@H](CNC(=O)c3ccc(Cl)s3)OC2=O)cc1
95.6 nM

* * *

tested on: rat tail bleeding time; experiment: Bleeding time (BT) in rat tail bleeding model; format: in vivo; details: rat tail, dose 5 mg/kg, po
Where a name gives a salt, the structure may show the parent alone.
The following compounds are shown together with reported Prolongation of bleeding time (X-fold) values.
Report the value in X-fold with no unit label.

Example entries begin here.
O=C(NC[C@H]1CN(c2ccc(N3CCNC=N3)cc2)C(=O)O1)c1ccc(Cl)s1 [109 (MSA salt)]	3.8
CN1CCON=C1c1ccc(N2C[C@H](CNC(=O)c3ccc(Cl)s3)OC2=O)cc1 [Compound 100]	0.9
O=C(NC[C@H]1CN(c2ccc(N3CCNC=N3)cc2)C(=O)O1)c1ccc(Cl)s1 [Compound 109]	4.0
CN1CCON=C1c1ccc(N2C[C@H](CNC(=O)c3ccc(Cl)s3)OC2=O)cc1 [100 (MSA salt)]	1.1

Here is the next item to consider.
Name the recorded Prolongation of bleeding time (X-fold) of the item CN1CCON=C1c1ccc(N2C[C@H](CNC(=O)c3ccc(Cl)s3)OC2=O)cc1 [100 (HCl salt)] in your answer.
1.2

* * *

2xPT (uM) Spectramax by entry:
tested on: citrated plasma; test: Prothrombin time (PT), method using spectramax; assay type: biochemical, human and rat; details: concentration required to double the plasma clotting times, absorbance 340 nm, plasma species not given
Write the number in µM without appending the unit.

O=C(NC[C@H]1CN(c2ccc(N3CCNC=N3)cc2)C(=O)O1)c1ccc(Cl)s1	0.21
O=C(NC[C@H]1CN(c2ccc(C3=NCCN4C(=O)CCN34)cc2)C(=O)O1)c1ccc(Cl)s1	0.35
O=C(NC[C@H]1CN(c2ccc(C3=NOCCN3)cc2)C(=O)O1)c1ccc(Cl)s1	1.39
CC1=NOCCN1c1ccc(N2C[C@H](CNC(=O)c3ccc(Cl)s3)OC2=O)cc1	0.71
O=C(NC[C@H]1CN(c2ccc(C3=NOCCN3C3CC3)cc2)C(=O)O1)c1ccc(Cl)s1	1.10

Supply measured 2xPT (uM) Spectramax of CCN1CCON=C1c1ccc(N2C[C@H](CNC(=O)c3ccc(Cl)s3)OC2=O)cc1 in your reply.
0.77

Fill in 2xPT (uM) Spectramax for record CCN1CCN(C)N=C1c1ccc(N2C[C@H](CNC(=O)c3ccc(Cl)s3)OC2=O)cc1
0.33

Note 2xPT (uM) Spectramax for the compound shown: O=CN1CCN(c2ccc(N3C[C@H](CNC(=O)c4ccc(Cl)s4)OC3=O)cc2)C=N1
4.88

* * *

experiment: physchem; format: physicochemical; conditions: water; read-out: Aqueous Solubility
Where a name gives a salt, the structure may show the parent alone.
measurement_label: solubility (mM)
Enter your answer as a number in mM; do not include the unit.

Please give measured solubility of the following entry: CN1CCON=C1c1ccc(N2C[C@H](CNC(=O)c3ccc(Cl)s3)OC2=O)cc1 [100 (HCl salt)]
12

* * *

Reported pKi by item:
Target: human FXa (Homo sapiens)
Construct: purchased Enzyme Research Laboratories
Assay: Inhibitory activity against purified human FXa, chromogenic substrate S-2765
Assay type: biochemical
Method: Human FXa was purchased from Enzyme Research Laboratories. 96-well microplate was purchased from Corning Life Sciences. Inhibitory activity of the oxazolidinone derivatives with cyclic amidoxime or cyclic amidrazone group represented by formula I of the present invention against FXa was measured as follow. The reaction was initiated by the addition of the substrate, and the absorbance was monitored continuously at 405 nm for 5 min using SpectraMax 190 (Molecular Devices, USA). […]
Scale explanation: pKi corresponds to minus log10 of a concentration expressed in moles per litre.

Return pKi (reported value) for this compound: CCN1CCON=C1c1ccc(N2C[C@H](CNC(=O)c3ccc(Cl)s3)OC2=O)cc1 [Compound 102]
8.05

Recall and state the measured pKi for O=C(NC[C@H]1CN(c2ccc(C3=NOCCN3C3CC3)cc2)C(=O)O1)c1ccc(Cl)s1 [Compound 103] .
7.27

Supply reported pKi belonging to this compound: O=C(NC[C@H]1CN(c2ccc(N3CCNC=N3)cc2)C(=O)O1)c1ccc(Cl)s1 [Compound 109]
8.36

* * *

In this section, each of the compounds is paired with its reported Prolongation of bleeding time (X-fold).
tested on: rat tail bleeding time; assay: Bleeding time (BT) in rat tail bleeding model; format: in vivo; conditions: rat tail, dose 10 mg/kg, po
Structures can show the parent of a compound that is named as a salt.
Respond numerically; units are X-fold and should not be typed.

CN1CCON=C1c1ccc(N2C[C@H](CNC(=O)c3ccc(Cl)s3)OC2=O)cc1 [100 (MSA salt)]	1.8
CN1CCON=C1c1ccc(N2C[C@H](CNC(=O)c3ccc(Cl)s3)OC2=O)cc1 [100 (HCl salt)]	0.9
O=C(NC[C@H]1CN(c2ccc(N3CCNC=N3)cc2)C(=O)O1)c1ccc(Cl)s1 [109 (MSA salt)]	5.7

Okay, next one:
Name the recorded Prolongation of bleeding time (X-fold) of the item O=C(NC[C@H]1CN(c2ccc(N3CCNC=N3)cc2)C(=O)O1)c1ccc(Cl)s1 [Compound 109] in your answer.
4.1
